ASSAYED_TARGET: rat α1β2γ2 GABAA Receptor (Rattus norvegicus, UniProt P18508+P62813+P63138, INS375LLRMFSFK)
Construct: from linearized pBluescript vectors containing receptor coding regions; expressed in transfected cells; host or cells: Xenopus laevis oocytes injected with in vitro transcribed capped mRNA
Sequence (P62813 28-455, stated change not applied): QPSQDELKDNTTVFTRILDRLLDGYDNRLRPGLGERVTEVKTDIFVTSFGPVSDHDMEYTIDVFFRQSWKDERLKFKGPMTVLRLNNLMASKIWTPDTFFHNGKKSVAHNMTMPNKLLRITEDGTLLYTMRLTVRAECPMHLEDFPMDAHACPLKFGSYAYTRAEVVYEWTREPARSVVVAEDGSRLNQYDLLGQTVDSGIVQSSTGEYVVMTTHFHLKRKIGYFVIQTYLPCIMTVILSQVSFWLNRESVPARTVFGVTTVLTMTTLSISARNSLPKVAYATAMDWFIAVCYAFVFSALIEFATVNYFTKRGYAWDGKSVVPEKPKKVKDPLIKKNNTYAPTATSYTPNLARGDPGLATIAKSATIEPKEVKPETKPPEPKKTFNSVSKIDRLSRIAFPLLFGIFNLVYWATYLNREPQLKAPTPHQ
Sequence (P63138 26-474, stated change not applied): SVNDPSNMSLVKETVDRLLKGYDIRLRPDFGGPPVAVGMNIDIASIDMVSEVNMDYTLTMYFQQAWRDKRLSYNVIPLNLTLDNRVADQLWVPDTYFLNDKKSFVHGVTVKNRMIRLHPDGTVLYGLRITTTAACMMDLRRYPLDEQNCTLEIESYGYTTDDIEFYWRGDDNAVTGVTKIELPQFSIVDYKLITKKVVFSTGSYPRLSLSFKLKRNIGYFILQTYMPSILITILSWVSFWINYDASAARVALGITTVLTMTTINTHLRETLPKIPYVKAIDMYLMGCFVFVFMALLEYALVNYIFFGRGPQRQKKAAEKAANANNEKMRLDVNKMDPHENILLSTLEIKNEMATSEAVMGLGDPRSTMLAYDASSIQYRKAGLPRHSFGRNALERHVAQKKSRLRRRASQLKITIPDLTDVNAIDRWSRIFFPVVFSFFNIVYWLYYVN
Sequence (P18508 with tags, fused parts or gaps INS375LLRMFSFK): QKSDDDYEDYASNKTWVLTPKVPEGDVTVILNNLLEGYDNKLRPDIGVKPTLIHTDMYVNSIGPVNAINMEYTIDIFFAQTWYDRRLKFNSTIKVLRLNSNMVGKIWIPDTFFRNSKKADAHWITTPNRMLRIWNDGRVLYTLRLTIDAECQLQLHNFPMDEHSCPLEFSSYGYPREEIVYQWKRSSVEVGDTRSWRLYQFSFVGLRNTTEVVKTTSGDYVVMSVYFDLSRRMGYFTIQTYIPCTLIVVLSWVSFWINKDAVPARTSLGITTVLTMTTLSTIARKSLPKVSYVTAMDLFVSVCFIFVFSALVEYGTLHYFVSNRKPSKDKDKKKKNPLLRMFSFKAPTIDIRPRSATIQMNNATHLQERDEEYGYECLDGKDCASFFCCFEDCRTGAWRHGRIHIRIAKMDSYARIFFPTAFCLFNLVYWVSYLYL
RUN_DESCRIPTION: Xenopus oocyte two-electrode voltage-clamp electrophysiology
Type: cell-based
STUDY_CONDITIONS: 1 μM compound co-applied with 2 μM GABA; −70 mV
Field: label. Allowed values: y (Oocyte electrophysiology, ratio of currents in presence/absence of compound, 1 μM < 2) or n (Oocyte electrophysiology, ratio of currents in presence/absence of compound, 1 μM >= 2).

• CC12CCC(O)CC1CCC1C2CCC23CC=CC(=O)C2CCC13 (centres unmarked) [Compound 11b] = y
• CC12CCC(O)CC1CCC1C2CCC23C(=O)C=CCC2CCC13 (centres unmarked) [Compound 35b] = n
• C[C@]12CC[C@@H](O)C[C@@H]1CCC1C3CC[C@@H]4[C@@]5(CCC[C@]34CCC12)CO5 (some centres unmarked) = n
• CC12CCC(O)CC1CCC1C2CCC23CCC(=CC#N)C2CCC13 (centres unmarked) [Compound 96] = n
• C[C@]12CC[C@@H](O)C[C@@H]1CCC1C3CC[C@@H]4C(C#N)=CCC[C@]34CCC12 (some centres unmarked) = y
• C=C1CCC[C@]23CCC4C(CC[C@@H]5C[C@H](O)CC[C@]45C)C2CC[C@H]13 (some centres unmarked) = n
• CC12CCC(O)CC1CCC1C2CCC23CCC=CC2CCC13 (centres unmarked) [Compound 13a] = n
• C[C@]12CC[C@@H](O)C[C@@H]1CCC1C3CC[C@@H]4[C@H]5O[C@H]5CC[C@]34CCC12 (some centres unmarked) = y
• CC12CCC(O)CC1CCC1C2CCC23CC4OC4C(=O)C2CCC13 (centres unmarked) [Compound 19a] = y
• CC12CCC(O)CC1CCC1C2CCC23CC=CC(=O)C2CCC13 (centres unmarked) [Compound 11a] = n
• CC12CCC(O)CC1CCC1C2CCC23C=CC(=O)C2CCC13 (centres unmarked) = y
